Experiment: Cell viability assay (EZ-Cytox), cytotoxicity
Type: cell-based
Conditions: human, HepAD38 cells, @100 μM, read-out: Cytotoxicity % Livability (@100 μM)
Description: HepAD38 cells were cultured for 2 days in Dulbecco's Modified Eagle's medium (Welgene, LM001-05) supplemented with 10% FBS without tetracycline. […] After 65 hours of treatment, viability was measured using EZ-Cytox cell viability assay kit (Daeil Lab Service) according to the manufacturer's instructions. The absorbance was measured at 450 nm using a spectrophotometer (Spark, Tecan).
reported.endpoint: viability at 65 h, 100 µM (%)

> print(dat)
                                   molecule  measured.value
1  COc1cc(N(Cc2cc(C(F)(F)F)[nH]n2)C(=O)Nc2ccc(F)c(C#N)c2)cnn1              99
2  COc1ncc(N(Cc2cc(C(F)(F)F)[nH]n2)C(=O)Nc2cc(F)c(F)c(F)n2)cn1             100
3  Cn1ccc(N(Cc2n[nH]c3c2CCCO3)C(=O)Nc2ccc(F)c(Cl)c2)n1             100
4  N#Cc1ccc(N(Cc2n[nH]c3c2CCOC3)C(=O)Nc2ccc(F)c(Cl)c2)cn1              95
5  COc1ccc(N(Cc2n[nH]c3c2CCC3C)C(=O)Nc2ccc(F)c(Cl)c2)cn1 (centres unmarked)            91.2
6  N#Cc1ccc(N(Cc2n[nH]c3c2COCC3)C(=O)Nc2ccc(F)c(Cl)c2)cn1             109
7  COc1ncc(N(Cc2cc(C(F)(F)F)[nH]n2)C(=O)Nc2ccc(F)c(C(F)F)c2)cn1              58
8  COc1ccc(N(Cc2n[nH]c3c2COCC3)C(=O)Nc2ccc(F)c(Cl)c2)cc1             104

* * *

test: Cell viability assay (EZ-Cytox), cytotoxicity; assay type: cell-based; conditions: human, HepAD38 cells
Reported CC50 at 65 h values for the following compounds.
reported.endpoint: CC50 at 65 h (µM)

> print(dat)
                                   compound  reported.endpoint  endpoint.unit  relation  measured.value
1  COc1ccc(N(Cc2n[nH]c3c2CC(F)(F)CC3)C(=O)Nc2ccc(F)c(Cl)c2)cn1       CC50 at 65 h             µM         =            82.5
2  COc1ncc(N(Cc2cc(C(F)(F)F)[nH]n2)C(=O)Nc2cc(F)ccn2)cn1       CC50 at 65 h             µM         >             100
3  O=C(Nc1ccc(F)c(Cl)c1)N(Cc1n[nH]c2c1CCC2)c1ccon1       CC50 at 65 h             µM         =            70.3
4  COc1ncc(N(Cc2cc(C(F)(F)F)[nH]n2)C(=O)Nc2ccc(C(F)F)c(F)c2)cn1       CC50 at 65 h             µM         >             100

* * *

Reported CC50 at 65 h values for the following compounds.
test: Cell viability assay (EZ-Cytox), cytotoxicity; format: cell-based; details: human, HepAD38 cells
reported.endpoint: CC50 at 65 h

> print(dat)
                                   compound  reported.endpoint  measured.value
1  COc1ncc(N(Cc2n[nH]c(C(F)F)c2Br)C(=O)Nc2ccc(F)c(C(F)F)c2)cn1       CC50 at 65 h         79.1 µM
2  COc1ccc(N(Cc2n[nH]c3c2CCC3C)C(=O)Nc2ccc(F)c(Cl)c2)cn1 (stereo not shown)       CC50 at 65 h        > 100 µM
3  COc1ncc(N(Cc2cc(C(F)(F)F)[nH]n2)C(=O)Nc2ccc(F)c(C#N)c2)cn1       CC50 at 65 h        > 100 µM
4  COCc1c(CN(C(=O)Nc2ccc(F)c(Cl)c2)c2ccc(OC)nc2)n[nH]c1C(F)F       CC50 at 65 h        > 100 µM

* * *

test system: intracellular HBV DNA; experiment: Real-time PCR for intracellular HBV DNA in HepAD38 cells; type: cell-based; conditions: Hepatitis B virus, HePAD38, 65 h, 65 hours treatment
pIC50: −log10 of the molar value.
Reported pIC50 values for the following compounds.
reported.endpoint: pIC50

> print(dat)
                                   compound  relation  measured.value
1  COc1ncc(N(Cc2cc(C(F)(F)F)[nH]n2)C(=O)Nc2cccc(Cl)n2)cn1         =            6.42
2  Cc1cc(N(Cc2n[nH]c3c2CCCO3)C(=O)Nc2ccc(F)c(Cl)c2)no1         <            5.96
3  COc1ncc(N(Cc2cc(C(F)(F)F)[nH]n2)C(=O)Nc2cnc(F)c(Cl)c2)cn1         =            7.21
4  COCCc1c(CN(C(=O)Nc2ccc(F)c(Cl)c2)c2ccc(OC)nc2)n[nH]c1C(F)F         <            5.96
5  CCOC=Cc1c(CN(C(=O)Nc2ccc(F)c(Cl)c2)c2ccc(OC)nc2)n[nH]c1C(F)(F)F         <            5.96
6  COc1ncc(N(Cc2cc(C#N)[nH]n2)C(=O)Nc2ccc(F)c(Cl)c2)cn1         =            7.57
7  COc1ncc(N(Cc2cc(C(F)(F)F)[nH]n2)C(=O)Nc2cncc(C(F)F)c2)cn1         =            6.32
8  COc1ncc(N(Cc2cc(C(F)(F)F)[nH]n2)C(=O)NC23CC(C2)C3)cn1         <            5.96

* * *

tested on: intracellular HBV DNA; assay: Real-time PCR for intracellular HBV DNA in HepAD38 cells; assay type: cell-based; conditions: Hepatitis B virus, HePAD38, 65 h, 65 hours treatment
pIC50: −log10 of the molar value.
So basically: pIC50 at 7 or higher? That is t. Lower than 7? That is f.

> print(dat)
                                    molecule      system.under.test  cat
 1  CS(=O)(=O)Nc1ccc(N(Cc2n[nH]c3c2CCOC3)C(=O)Nc2ccc(F)c(Cl)c2)cc1  intracellular HBV DNA    f
 2  COc1ccc(N(Cc2ccn(C)n2)C(=O)Nc2ccc(F)c(Cl)c2)cc1  intracellular HBV DNA    f
 3  COc1ccc(N(Cc2nn(CCOC3CCCCO3)c3c2CCC3)C(=O)Nc2ccc(F)c(Cl)c2)cn1 (centres unmarked)  intracellular HBV DNA    f
 4  COc1ncc(N(Cc2cc(C(F)F)[nH]n2)C(=O)Nc2ccc(F)c(Cl)c2)cn1  intracellular HBV DNA    t
 5  COc1ccc(N(Cc2n[nH]c3c2CCC3C)C(=O)Nc2ccc(F)c(Cl)c2)cn1 (centres unmarked)  intracellular HBV DNA    t
 6  COc1ncc(N(Cc2n[nH]c(C(F)(F)F)c2CC(C)(C)O)C(=O)Nc2ccc(F)c(Cl)c2)cn1  intracellular HBV DNA    f
 7  COc1ccc(N(Cc2n[nH]c3c2CCCO3)C(=O)Nc2ccc(F)c(Cl)c2)cn1  intracellular HBV DNA    t
 8  COc1ncc(N(Cc2cc(C(F)(F)F)[nH]n2)C(=O)NC23CC(Cl)(C2)C3)cn1  intracellular HBV DNA    f
 9  N#Cc1cc(N(Cc2n[nH]c3c2COCC3)C(=O)Nc2ccc(F)c(Cl)c2)ccn1  intracellular HBV DNA    f
10  CS(=O)(=O)Nc1ccc(N(Cc2n[nH]c3c2CCOC3)C(=O)Nc2ccc(F)c(Cl)c2)cn1  intracellular HBV DNA    f
11  CS(=O)(=O)Nc1ccc(N(Cc2n[nH]c3c2CCCO3)C(=O)Nc2ccc(F)c(Cl)c2)cc1  intracellular HBV DNA    f
12  COc1ncc(N(Cc2cc(C(F)(F)F)[nH]n2)C(=O)Nc2ccc(F)c(F)n2)cn1  intracellular HBV DNA    f
13  COc1ncc(N(Cc2cc(C(F)(F)F)[nH]n2)C(=O)Nc2cc(F)c(F)c(C#N)c2)cn1  intracellular HBV DNA    f
14  COc1ccc(N(Cc2n[nH]c3c2COCC3)C(=O)Nc2ccc(F)c(Cl)c2)cc1  intracellular HBV DNA    t
15  COc1ncc(N(Cc2cc(C(F)(F)F)[nH]n2)C(=O)Nc2ccc(F)c(C#N)c2)cn1  intracellular HBV DNA    t
16  COc1ncc(N(Cc2cc(C(F)(F)F)[nH]n2)C(=O)Nc2nc(F)c(F)cc2F)cn1  intracellular HBV DNA    f
17  COc1ncc(N(Cc2cc(C#N)[nH]n2)C(=O)Nc2ccc(C#N)c(C(F)F)c2)cn1  intracellular HBV DNA    f
18  COc1ncc(N(Cc2cc(C(F)(F)F)[nH]n2)C(=O)Nc2cccc(C#N)c2)cn1  intracellular HBV DNA    f
19  COc1ncc(N(Cc2n[nH]c(C(F)F)c2C(C)(C)O)C(=O)Nc2ccc(F)c(Cl)c2)cn1  intracellular HBV DNA    f
20  COc1ccc(N(Cc2n[nH]c3c2CN(C(C)=O)CC3)C(=O)Nc2ccc(F)c(Cl)c2)cc1  intracellular HBV DNA    f
21  COc1ccc(N(Cc2n[nH]c3c2CC(C(=O)O)CC3)C(=O)Nc2ccc(F)c(Cl)c2)cn1 (centres unmarked)  intracellular HBV DNA    f
22  COc1ncc(N(Cc2cc(C(F)(F)F)[nH]n2)C(=O)Nc2ccc(F)c(Cl)c2)cc1C#N  intracellular HBV DNA    f
23  N#Cc1ccc(N(Cc2n[nH]c3c2CCOC3)C(=O)Nc2ccc(F)c(Cl)c2)cn1  intracellular HBV DNA    f
24  COc1ccc(N(Cc2cc(C(F)F)[nH]n2)C(=O)Nc2ccc(F)c(Cl)c2)nn1  intracellular HBV DNA    f
25  COc1ncc(N(Cc2n[nH]c(C(F)(F)F)c2C(C)(C)O)C(=O)Nc2ccc(F)c(C(F)F)c2)cn1  intracellular HBV DNA    f
26  COc1ccc(N(Cc2cc(C(F)F)[nH]n2)C(=O)Nc2ccc(F)c(Cl)c2)cn1  intracellular HBV DNA    t
27  COc1ccc(N(Cc2n[nH]c(C)c2C)C(=O)Nc2ccc(F)c(Cl)c2)cn1  intracellular HBV DNA    t
28  COc1ccc(N(Cc2n[nH]c3c2CC(C(F)(F)F)CC3)C(=O)Nc2ccc(F)c(Cl)c2)cn1 (centres unmarked)  intracellular HBV DNA    f
29  COc1ncc(N(Cc2cc(C(F)(F)F)[nH]n2)C(=O)Nc2ccc(F)c(Cl)c2)c(C)n1  intracellular HBV DNA    t
30  COc1ncc(N(Cc2cc(C#N)[nH]n2)C(=O)Nc2ccc(C#N)c(Cl)c2)cn1  intracellular HBV DNA    f
31  COc1cncc(N(Cc2n[nH]c3c2COCC3)C(=O)Nc2ccc(F)c(Cl)c2)c1  intracellular HBV DNA    t
